Target: UniProt B1MDC1
Sequence (B1MDC1 entry or part of it): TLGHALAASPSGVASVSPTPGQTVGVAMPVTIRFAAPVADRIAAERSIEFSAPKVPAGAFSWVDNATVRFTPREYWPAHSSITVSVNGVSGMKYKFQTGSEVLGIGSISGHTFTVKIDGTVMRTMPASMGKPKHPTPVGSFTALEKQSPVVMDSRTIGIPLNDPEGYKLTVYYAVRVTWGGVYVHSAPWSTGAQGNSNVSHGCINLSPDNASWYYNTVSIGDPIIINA
Test: Mass spectrometry of covalent adduct formation
Format: binding
Settings: protein:drug 1:20, 2 h; mass accuracy ±5 Da; (−) = no change
Observable: Observed MW (+ change in mw), LDT1 (23,059)

- Structure String: "CC1=C[C@@H]2CN(C(=O)N2OS(=O)(=O)O)[C@@H]1C(N)=O"
  Target Of Assay: "UniProt B1MDC1"
  Reported Value: "23,336 (+277) Da"
- Structure String: "NC(=O)[C@@H]1CC[C@@H]2CN1C(=O)N2OS(=O)(=O)O"
  Target Of Assay: "UniProt B1MDC1"
  Reported Value: "23,325 (+265) Da"
- Structure String: "CO/N=C(\\C(=O)N[C@@H]1C(=O)N2C(C(=O)O)=C(COC(N)=O)CS[C@H]12)c1ccco1"
  Target Of Assay: "UniProt B1MDC1"
  Reported Value: "23,059 (−) Da"
- Structure String: "CC1(C)S[C@@H]2[C@H](NC(=O)[C@H](N)c3ccc(O)cc3)C(=O)N2[C@H]1C(=O)O"
  Target Of Assay: "UniProt B1MDC1"
  Reported Value: "28,220 (−) Da"
- Structure String: "C[C@@H](O)[C@H]1C(=O)N2C(C(=O)O)=C(SC3CN(C4=NCCS4)C3)[C@H](C)[C@H]12"
  Target Of Assay: "UniProt B1MDC1"
  Reported Value: "23,443 (+384) Da"

----------
Biological target: PBP-lipo (Mycobacteroides abscessus)
Construct: made in house; host or cells: Escherichia coli BL21 (DE3)
Sequence (B1MDC3 entry or part of it): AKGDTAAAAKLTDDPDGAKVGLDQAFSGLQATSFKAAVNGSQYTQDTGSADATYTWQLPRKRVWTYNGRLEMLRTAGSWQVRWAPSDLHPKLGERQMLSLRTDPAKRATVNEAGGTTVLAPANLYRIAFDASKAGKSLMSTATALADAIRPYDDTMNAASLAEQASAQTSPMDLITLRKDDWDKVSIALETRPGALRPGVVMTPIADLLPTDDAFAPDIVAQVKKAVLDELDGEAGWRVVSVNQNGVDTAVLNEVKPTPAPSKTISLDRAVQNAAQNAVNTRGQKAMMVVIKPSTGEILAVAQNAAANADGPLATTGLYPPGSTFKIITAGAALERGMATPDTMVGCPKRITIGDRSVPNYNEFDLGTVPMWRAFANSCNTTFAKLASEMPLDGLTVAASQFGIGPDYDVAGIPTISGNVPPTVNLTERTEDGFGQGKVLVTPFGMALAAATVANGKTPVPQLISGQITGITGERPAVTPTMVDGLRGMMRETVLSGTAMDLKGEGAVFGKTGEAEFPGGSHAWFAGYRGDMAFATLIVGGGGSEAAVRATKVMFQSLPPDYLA
Assay: Steady-state kinetics with nitrocefin (Ki,app)
Format: biochemical
Conditions: in parentheses in Table 3
Observable: Ratio of fCss,avg to Ki,app, PBP-lipo

- Structure String: "CCO/N=C(\\C(=O)N[C@@H]1C(=O)N2C(C(=O)[O-])=C(Sc3nc(-c4cc[n+](C)cc4)cs3)CS[C@H]12)c1nsc(N)n1"
  Reported Value: 0.5
- Structure String: "CC1=C[C@@H]2CN(C(=O)N2OS(=O)(=O)O)[C@@H]1C(N)=O"
  Reported Value: 133
- Structure String: "CO/N=C(\\C(=O)N[C@@H]1C(=O)N2C(C(=O)O)=C(COC(N)=O)CS[C@H]12)c1ccco1"
  Reported Value: 0.5
- Structure String: "C[C@@H](O)[C@H]1C(=O)N2C(C(=O)O)=C(S[C@H]3CC[S@@+]([O-])C3)S[C@H]12"
  Reported Value: 25
- Structure String: "C[C@@H](O)[C@H]1C(=O)N2C(C(=O)O)=C(SCCN=CN)C[C@H]12"
  Reported Value: 22
- Structure String: "NC(=O)[C@@H]1CC[C@@H]2CN1C(=O)N2OS(=O)(=O)O"
  Reported Value: 1
- Structure String: "C[C@@H](O)[C@H]1C(=O)N2C(C(=O)O)=C(SC3CN(C4=NCCS4)C3)[C@H](C)[C@H]12"
  Reported Value: 0.05

----------
Biological target: LDT2 (Mycobacterium abscessus, UniProt B1MMQ4)
Sequence (B1MMQ4 entry or part of it): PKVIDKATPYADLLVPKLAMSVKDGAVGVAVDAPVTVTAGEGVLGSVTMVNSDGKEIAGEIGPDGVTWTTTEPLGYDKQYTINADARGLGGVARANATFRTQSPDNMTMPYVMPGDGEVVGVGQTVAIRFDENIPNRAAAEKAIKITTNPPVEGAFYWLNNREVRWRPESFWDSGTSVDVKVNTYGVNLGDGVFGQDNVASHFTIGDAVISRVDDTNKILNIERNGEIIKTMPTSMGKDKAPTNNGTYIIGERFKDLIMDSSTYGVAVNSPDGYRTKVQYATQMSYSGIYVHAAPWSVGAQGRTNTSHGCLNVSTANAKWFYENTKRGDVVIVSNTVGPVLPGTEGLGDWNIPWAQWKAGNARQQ
Assay: Steady-state kinetics with nitrocefin (Ki,app)
Format: biochemical
Conditions: Ki,app LDT2, nitrocefin at 5 × Km
pKi: −log10 of the molar value.
pKi by entry:

- Structure String: "C[C@@H](O)[C@H]1C(=O)N2C(C(=O)O)=C(S[C@H]3CC[S@@+]([O-])C3)S[C@H]12"
  pKi: 6.70
- Structure String: "NC(=O)[C@@H]1CC[C@@H]2CN1C(=O)N2OS(=O)(=O)O"
  pKi: 5.77
- Structure String: "C[C@@H](O)[C@H]1C(=O)N2C(C(=O)O)=C(SCCN=CN)C[C@H]12"
  pKi: 8.18
- Structure String: "CO/N=C(\\C(=O)N[C@@H]1C(=O)N2C(C(=O)O)=C(COC(N)=O)CS[C@H]12)c1ccco1"
  pKi: 5.93
- Structure String: "C[C@@H](O)[C@H]1C(=O)N2C(C(=O)O)=C(SC3CN(C4=NCCS4)C3)[C@H](C)[C@H]12"
  pKi: 7.58

----------
Target: BlaMab (Mycobacterium abscessus)
Sequence (B1MCI3 entry or part of it): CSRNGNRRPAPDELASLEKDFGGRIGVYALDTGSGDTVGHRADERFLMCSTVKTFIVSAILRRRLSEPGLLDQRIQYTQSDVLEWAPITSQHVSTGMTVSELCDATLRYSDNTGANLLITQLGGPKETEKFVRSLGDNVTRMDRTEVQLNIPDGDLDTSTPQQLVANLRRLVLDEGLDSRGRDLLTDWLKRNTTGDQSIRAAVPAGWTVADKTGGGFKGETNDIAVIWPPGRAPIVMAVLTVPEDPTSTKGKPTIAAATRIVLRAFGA
Assay: Ki,app for the β-lactamase
Type: biochemical
Conditions: read-out: Ki,app BlaMab
pKi: −log10 of the molar value.

- Structure String: "CC1(C)S[C@@H]2[C@H](NC(=O)[C@H](N)c3ccc(O)cc3)C(=O)N2[C@H]1C(=O)O"
  pKi: "> 4.86"

----------
Biological target: LDT4 (Mycobacterium abscessus, UniProt B1MKW1)
Sequence (B1MKW1 entry or part of it): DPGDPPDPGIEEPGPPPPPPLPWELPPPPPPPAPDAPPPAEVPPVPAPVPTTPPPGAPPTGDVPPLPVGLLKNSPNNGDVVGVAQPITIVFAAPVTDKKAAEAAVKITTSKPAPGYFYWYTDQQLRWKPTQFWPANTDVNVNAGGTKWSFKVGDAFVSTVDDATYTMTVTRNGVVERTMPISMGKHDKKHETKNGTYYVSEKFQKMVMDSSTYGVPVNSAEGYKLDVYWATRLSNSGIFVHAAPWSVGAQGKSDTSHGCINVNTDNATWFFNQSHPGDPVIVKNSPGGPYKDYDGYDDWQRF
Test: Mass spectrometry of covalent adduct formation
Assay type: binding
Settings: protein:drug 1:20, 2 h; mass accuracy ±5 Da; (−) = no change
Observable: Observed MW (+ change in mw), LDT4 (32,567)

- Structure String: "CC1=C[C@@H]2CN(C(=O)N2OS(=O)(=O)O)[C@@H]1C(N)=O"
  Target Of Assay: "LDT4 (Mycobacterium abscessus, UniProt B1MKW1)"
  Reported Value: "32,841 (+276) Da"
- Structure String: "C[C@@H](O)[C@H]1C(=O)N2C(C(=O)O)=C(SC3CN(C4=NCCS4)C3)[C@H](C)[C@H]12"
  Target Of Assay: "LDT4 (Mycobacterium abscessus, UniProt B1MKW1)"
  Reported Value: "32,951 (+384) Da"
- Structure String: "CO/N=C(\\C(=O)N[C@@H]1C(=O)N2C(C(=O)O)=C(COC(N)=O)CS[C@H]12)c1ccco1"
  Target Of Assay: "LDT4 (Mycobacterium abscessus, UniProt B1MKW1)"
  Reported Value: "32,567 (−) Da"
- Structure String: "C[C@@H](O)[C@H]1C(=O)N2C(C(=O)O)=C(S[C@H]3CC[S@@+]([O-])C3)S[C@H]12"
  Target Of Assay: "LDT4 (Mycobacterium abscessus, UniProt B1MKW1)"
  Reported Value: "32,652 (+86) Da"

----------
Target: LDT2 (Mycobacterium abscessus, UniProt B1MMQ4)
Test: Steady-state kinetics with nitrocefin (Ki,app)
Assay type: biochemical
Conditions: in parentheses in Table 3
Ratio of fCss,avg to Ki,app, LDT2 by entry:

- Structure String: "C[C@@H](O)[C@H]1C(=O)N2C(C(=O)O)=C(SC3CN(C4=NCCS4)C3)[C@H](C)[C@H]12"
  Ratio of fCss,avg to Ki,app, LDT2: 170
- Structure String: "NC(=O)[C@@H]1CC[C@@H]2CN1C(=O)N2OS(=O)(=O)O"
  Ratio of fCss,avg to Ki,app, LDT2: 11
- Structure String: "CO/N=C(\\C(=O)N[C@@H]1C(=O)N2C(C(=O)O)=C(COC(N)=O)CS[C@H]12)c1ccco1"
  Ratio of fCss,avg to Ki,app, LDT2: 24

Entry source: paper PMC11823594
